Provide the recorded activation at 0.1 µM for the entries that follow.
Target: glucocerebrosidase (Gcase) (Homo sapiens, UniProt P04062)
Sequence (P04062 40-536): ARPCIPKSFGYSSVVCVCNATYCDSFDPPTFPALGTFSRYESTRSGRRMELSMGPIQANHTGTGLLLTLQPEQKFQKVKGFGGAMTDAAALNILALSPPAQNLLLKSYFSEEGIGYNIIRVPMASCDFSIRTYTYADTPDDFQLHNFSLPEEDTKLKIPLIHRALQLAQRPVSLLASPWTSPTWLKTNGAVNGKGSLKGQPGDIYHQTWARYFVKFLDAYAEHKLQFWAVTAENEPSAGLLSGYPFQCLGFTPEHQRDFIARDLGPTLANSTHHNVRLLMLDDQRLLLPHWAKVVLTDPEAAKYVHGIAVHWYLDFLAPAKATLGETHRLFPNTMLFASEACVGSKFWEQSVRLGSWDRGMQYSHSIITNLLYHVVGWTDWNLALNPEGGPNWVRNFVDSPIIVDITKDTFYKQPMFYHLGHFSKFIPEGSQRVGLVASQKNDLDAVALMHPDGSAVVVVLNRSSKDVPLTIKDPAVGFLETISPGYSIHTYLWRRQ
Assay: Glucocerebrosidase (Gcase) activation assay, 4-methylumbelliferyl-beta-D-glucopyranoside substrate, with saposin C
Assay type: biochemical
Conditions: 0.1 μM test compound; read-out: Percent Gcase Activation 0.1 μM Test Compound

Enquiry: Param readout= activation at 0.1 µM; system= glucocerebrosidase (Gcase) (Homo sapiens, UniProt P04062); entry= Cc1cc(-n2ccc(Cl)n2)nc2c(C(=O)NC(C)(C)C3CC3)ncn12 ; returns value.
Return: < 10%

Enquiry: Param readout= activation at 0.1 µM; system= glucocerebrosidase (Gcase) (Homo sapiens, UniProt P04062); entry= Cc1cc(Oc2ccncc2)nc2c(C(=O)N[C@@H](C)C3CC3)ncn12 ; returns value.
Return: < 10%

Enquiry: Param readout= activation at 0.1 µM; system= glucocerebrosidase (Gcase) (Homo sapiens, UniProt P04062); entry= Cc1cc(-c2cccnc2)nc2c(C(=O)N[C@@H](C)c3ccccc3F)ncn12 ; returns value.
Return: < 10%

Enquiry: Param readout= activation at 0.1 µM; system= glucocerebrosidase (Gcase) (Homo sapiens, UniProt P04062); entry= CO[C@H]1CC[C@@H](C(C)(C)NC(=O)c2ncn3c(C)cc(-c4cccnc4)nc23)CC1 ; returns value.
Return: < 10%

Enquiry: Param readout= activation at 0.1 µM; system= glucocerebrosidase (Gcase) (Homo sapiens, UniProt P04062); entry= Cc1cc(C)n2cnc(C(=O)NC(C)C3CCCCC3)c2n1 (stereo not drawn) ; returns value.
Return: < 10%

Enquiry: Param readout= activation at 0.1 µM; system= glucocerebrosidase (Gcase) (Homo sapiens, UniProt P04062); entry= COc1cccc(-c2cc(C)n3cnc(C(=O)NC(C)(C)C(F)(F)F)c3n2)c1 ; returns value.
Return: > 20%

Enquiry: Param readout= activation at 0.1 µM; system= glucocerebrosidase (Gcase) (Homo sapiens, UniProt P04062); entry= Cc1cc(-c2cncs2)nc2c(C(=O)NC(C)(C)C3CC3)ncn12 ; returns value.
Return: < 10%

Enquiry: Param readout= activation at 0.1 µM; system= glucocerebrosidase (Gcase) (Homo sapiens, UniProt P04062); entry= Cc1cc(Cl)nc2c(C(=O)NC(c3ccc(F)cc3)C(F)(F)F)ncn12 (stereo not drawn) ; returns value.
Return: 10 to 20%

Enquiry: Param readout= activation at 0.1 µM; system= glucocerebrosidase (Gcase) (Homo sapiens, UniProt P04062); entry= COc1cccc(-c2cc(C)n3cnc(C(=O)NC(C4CC4)C(F)(F)F)c3n2)n1 (stereo not drawn) ; returns value.
Return: > 20%

These entries and their values trace back to patent US9920061B2.
